B1: TPR 5TU (parent)
chain: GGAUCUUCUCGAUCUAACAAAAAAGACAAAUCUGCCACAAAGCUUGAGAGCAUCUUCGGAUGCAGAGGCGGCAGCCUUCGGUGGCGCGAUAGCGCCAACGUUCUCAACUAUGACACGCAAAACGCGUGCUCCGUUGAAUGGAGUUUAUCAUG

Variants of: B1
assay-info: polymerase ribozyme fitness, log enrichment relative to wild type (log ratio); higher = more active; in vitro selection for triplet polymerase activity
Fewer inactive variants are shown than the library holds.
readout-name: polymerase ribozyme fitness (log ratio)
Lab note: record just the number, no unit beside it.

Observe how each entry below is paired with its result.
>>> measured_value("U31A A49G C105U")
-0.707
>>> measured_value("U56A C93U G141A")
-3.72
>>> measured_value("U53A C54G")
-2.2
>>> measured_value("U4A A41C G126C")
-1.9

Need polymerase ribozyme fitness (log ratio) of A41C C57A C87U C114G , thanks.
-3.91

Fill blank: measured polymerase ribozyme fitness (log ratio) of the variant A16C C85U C95A C132U is ____.
-3.71
